The values you see were collected from patent US8871798B2.

Target: PAR1 (Homo sapiens, UniProt P25116)
Construct: endogenous in cells
Sequence (P25116 22-425): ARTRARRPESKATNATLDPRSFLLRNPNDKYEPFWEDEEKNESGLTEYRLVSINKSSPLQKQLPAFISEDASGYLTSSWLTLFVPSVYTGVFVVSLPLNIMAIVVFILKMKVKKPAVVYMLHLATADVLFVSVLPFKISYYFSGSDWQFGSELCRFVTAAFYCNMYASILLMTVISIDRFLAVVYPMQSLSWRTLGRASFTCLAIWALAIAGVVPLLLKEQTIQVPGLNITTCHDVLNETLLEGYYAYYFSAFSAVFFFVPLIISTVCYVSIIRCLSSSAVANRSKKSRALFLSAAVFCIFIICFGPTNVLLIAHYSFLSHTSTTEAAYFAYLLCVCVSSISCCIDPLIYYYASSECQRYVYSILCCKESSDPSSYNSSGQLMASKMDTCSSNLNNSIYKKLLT
Test: Inhibition of PAR1-mediated platelet aggregation induced by TRAP (thrombin receptor-activating peptide), washed platelets, 96-well format
Conditions: TRAP-induced aggregation of platelets from healthy volunteers; 30 min preincubation at RT; AUC of kinetics at 650 nm, 37° C., 20 minutes
quantityKind: IC50 (µM)
Output spec: scalar in µM, unitless text.

CCN1C(=O)C2C(C1=O)C1CCCCN1C2/C=C/c1ccc(-c2cccc(F)c2)cn1 (racemic) | 3.68

Inquiry: Quick one: IC50 of COc1ccccc1-c1ccc(/C=C/[C@H]2[C@H]3C(=O)N(C)C(=O)[C@H]3[C@@H]3CCCCN23)nc1 (racemic) ?
Reply text: 4.09

Inquiry: Consider next the compound CN1C(=O)C2C(C1=O)C1COCCN1C2/C=C/c1ccc(-c2cccc(F)c2)cn1 (racemic) in the same way.
Reply text: 7.1

Inquiry: Consider next the compound CN1C(=O)[C@@H]2[C@H](C1=O)[C@H](/C=C/c1ccc(-c3cccc(C(F)(F)F)c3)cn1)N1CCCC[C@@H]21 (racemic) in the same way.
Reply text: 3.23

Inquiry: Consider next the compound CN1C(=O)[C@@H]2[C@H](C1=O)[C@H](/C=C/c1ccc(-c3ccccc3Cl)cn1)N1CCCC[C@@H]21 (racemic) in the same way.
Reply text: 0.26

Inquiry: Consider next the compound CN1C(=O)C2C(C1=O)C1C[C@H](O)CN1C2/C=C/c1ccc(-c2cccc(F)c2)cn1 (mixture of isomers) in the same way.
Reply text: 15.8
